# SYSTEM_TESTED: PLK1 (Homo sapiens)
# Sequence (P53350 whole entry): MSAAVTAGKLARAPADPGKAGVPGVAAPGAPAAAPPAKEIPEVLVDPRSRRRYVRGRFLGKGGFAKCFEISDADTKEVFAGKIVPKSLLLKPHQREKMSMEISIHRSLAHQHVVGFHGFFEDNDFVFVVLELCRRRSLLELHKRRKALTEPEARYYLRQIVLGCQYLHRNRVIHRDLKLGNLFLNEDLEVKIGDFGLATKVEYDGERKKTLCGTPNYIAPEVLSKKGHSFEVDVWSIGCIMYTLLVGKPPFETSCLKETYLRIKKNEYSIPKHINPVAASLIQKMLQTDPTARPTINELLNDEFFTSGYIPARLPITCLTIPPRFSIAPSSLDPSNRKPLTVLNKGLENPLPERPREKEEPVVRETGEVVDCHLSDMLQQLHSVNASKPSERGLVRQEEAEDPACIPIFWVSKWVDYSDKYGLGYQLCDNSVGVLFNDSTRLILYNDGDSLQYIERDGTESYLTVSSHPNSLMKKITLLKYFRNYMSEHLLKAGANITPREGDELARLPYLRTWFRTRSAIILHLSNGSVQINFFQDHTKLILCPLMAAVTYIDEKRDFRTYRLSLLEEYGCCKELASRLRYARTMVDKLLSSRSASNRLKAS
pKi: −log10 of the molar value.
READOUT_TYPE: pKi

[[record]]
chemical_smiles = "CC(C)CNc1ncc(C#N)c(-c2c[nH]c3ncc(C(F)(F)F)cc23)n1"
readout_type = "pKi"
experimental_result = "7.40 to 8.52"

[[record]]
chemical_smiles = "CC[C@H](O)C(=O)N1CCC([C@@H](C)Nc2ncc(C#N)c(-c3c[nH]c4ncc(C(F)(F)F)cc34)n2)CC1"
readout_type = "pKi"
experimental_result = "> 8.52"

[[record]]
chemical_smiles = "C[C@@H](Nc1ncc(C#N)c(-c2c[nH]c3ncc(C(F)(F)F)cc23)n1)c1cnc(N[C@H]2CCN(C)C2)nc1"
readout_type = "pKi"
experimental_result = "> 8.52"

[[record]]
chemical_smiles = "CC(C)(Nc1ncc(C#N)c(-c2c[nH]c3ncc(C(F)(F)F)cc23)n1)C(=O)NCC(F)(F)F"
readout_type = "pKi"
experimental_result = "7.40 to 8.52"

